These data points were gathered from PubChem BioAssay.

assay: reversal of MRP1-mediated doxorubicin resistance, pilot screen, H69AR cells, doxorubicin co-treatment (AID 601); conditions: H69AR cells + 2 uM doxorubicin, CellTiter-Glo, 72 h; at 10 µM; stronger effect = higher value
METRIC_NAME: differential viability (reversal) (%)

# MOLECULE, REPORTED
data = [
    ("C/C(NC1CCCC1)=C(/C#N)C(N)=O", 10.3),
    ("COc1ccc(OC)c(NC(=O)CSc2ncccc2C(=O)O)c1", 7.42),
    ("CC(C(=O)N1CCCCC1)n1sc2ccccc2c1=O (centres undefined)", 3.18),
    ("COc1ccc(Cc2nnc(NC(=O)Cc3cccs3)s2)cc1", 5.58),
    ("COc1ccc(-c2onc(C)c2-c2ccccc2)c(O)c1", -44.4),
    ("O=C(Nc1ncc(Br)s1)C1CCCN1S(=O)(=O)c1cccc2cccnc12 (centres undefined)", -10.8),
    ("CCCC1C(C#N)=C(N)Oc2n[nH]c(C(C)(C)C)c21 (centres undefined)", 11),
    ("O=C(Cn1cnc2c(nnn2-c2ccc(F)cc2)c1=O)N1CCCc2ccccc21", 16.3),
    ("CCOc1cccc(/C(O)=C2/C(=O)C(=O)N(CCN3CCOCC3)C2c2cccnc2)c1 (centres undefined)", 5.18),
    ("COc1cc2[nH]c(=O)n(CCC(=O)N3CCc4ccccc4C3)c(=O)c2cc1OC", -2.6),
    ("O=C(c1ccc2c(c1)OCO2)N1CCCN(C(=O)c2ccc3c(c2)OCO3)CC1", 10.7),
    ("COc1cc(Cl)c(C)cc1NC(=O)COC(=O)c1cnc(C)cn1", -2.33),
    ("CCCC1(C(=O)OCC)NC(c2ccc(N(C)C)cc2)C2C(=O)N(c3ccccc3)C(=O)C21 (centres undefined)", 3.73),
    ("CCc1ccccc1NC(=O)CSc1ncn[nH]1", 8.47),
]
